TEST_TARGET: Epidermal growth factor receptor (Homo sapiens)
TEST_PROTOCOL: compounds binding epidermal growth factor receptor – biochemical, small-molecule microarray, 635 nm fluorescence, primary screen (AID 1104);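 further: score merges 667 nm emission intensity with spot signal to noise over triplicate slides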
DETAILS: EGFR binding, higher = more signal
PARAMETER_MEASURED: composite z-score

- CC(C)(C)N1CC=CC23O[C@@H]4C=CCOC(=O)[C@@H]4[C@H]2C(=O)N(CCO)[C@@H]3C1=O (stereo partly specified): -0.687
- CC1CC/C=C\[C@H]2OC34C=CCN(c5ccc6ccccc6c5)C(=O)[C@H]3N(C(C)CO)C(=O)[C@@H]4C2C(=O)O1 (stereo partly specified): -0.975
- CN(C)C(=O)[C@@]1(Cc2ccccc2CN=[N+]=[N-])COC(c2ccc(OCCCO)cc2)=N1: -0.916
- COC(=O)C1(Cc2ccccc2)C=C2C(=C(C)C(=O)C2C)CN1 (stereo unspecified): -0.362
- CC(C)=CCCC=C(C)C(O)C1C=CC2C(=O)N(c3ccccc3)C(=O)C2N1Nc1ccc(C#N)cc1 (stereo unspecified): 0.411
- O=C1C2C=CC(C(O)c3c(F)cccc3Cl)N(Nc3ccc([N+](=O)[O-])cc3)C2C(=O)N1c1ccccc1 (stereo unspecified): 0.518
- O=C1OCCC=C[C@H]2OC34C=CCN(c5ccc6ccccc6c5)C(=O)[C@H]3N(CCO)C(=O)[C@@H]4C12 (stereo partly specified): -0.405
- CCCC[C@H]1C[C@@H]1[C@@H]1N(C(C)=O)[C@H](c2cccc(OC)c2)CC12CC2: -0.0128
- CO[C@H]1O[C@H](CO)[C@@H](OC(=O)Nc2ccc3c(c2)OCO3)[C@H](OC(=O)Nc2ccccc2-c2ccccc2)[C@H]1OC(=O)Nc1ccccc1-c1ccccc1: -0.294
- C=C(CCCC)/C(=C/C[C@H](OC(=O)c1ccncc1)c1ccc(OCCO)cc1)c1cnc2ccccc2c1: 0.776
- Cc1ccc(S[C@]2(C(=O)NCCCN(C)C)CC(=O)N(C3Cc4ccccc4C3)[C@@H]2c2ccc(CO)cc2I)cc1: -0.487
- CN(C)C(=O)[C@]1(Cc2ccccc2)N=C(c2ccc(OCCCO)cc2)O[C@@H]1c1ccccc1CN=[N+]=[N-]: 0.0699
- CC(C)C[C@@H]1NC(=O)[C@@]23C(=O)N[C@@H](Cc4ccccc4)C2[C@H](C)[C@@]2(C)O[C@H]2C3/C=C/C/C=C\CNC(=O)CNC1=O (stereo partly specified): 0.127
- CN(C)CCCCNC(=O)[C@H]1C[C@H]2C(=O)N3CCC[C@H]3C(=O)N2[C@H]1c1cccc(OCCO)c1: -0.497
- Cc1ccc(F)cc1S(=O)(=O)N[C@H]1CCN(Cc2ccc(OC(C)C)cc2)C1: -0.437
- COCCCNC(=O)[C@@]1(CCC(=O)OC(C)(C)C)COC(c2ccc(OCCCO)cc2)=N1: -0.106
